Molecular target: SYNE2_C2993 (Homo sapiens)
Construct: endogenous in cells; host or cells: 22Rv1
Experiment: IA-DTB cysteine engagement
Format: binding
Settings: 22Rv1 cells, 20 μM probe, 1 h, relative to DMSO
Description: Sample preparation: Cells (adherent: 15 cm dishes, suspension: 2 million cells/mL) were treated with electrophilic probes in situ for indicated times and concentrations, washed with ice-cold PBS, and flash frozen in liquid nitrogen. […] Whole cell lysates protein content was measured using a standard DC protein assay (Bio-Rad) and 500 μL (2 mg/mL protein content) were treated with 5 μL of 10 mM 1A-DTB (in DMSO) for 1 h at ambient temperature with occasional vortexing. […]
quantity_name: % engagement SYNE2_C2993 (%)

Exam item: Identify measured % engagement SYNE2_C2993 corresponding to C=CC(=O)N1C[C@H](c2ccc(Br)cc2)[C@@H]1C(=O)Nc1cccc2cccnc12 [MY-1B]
Marked response: 76.5

I = C=CC(=O)N1C[C@H](c2ccc(Br)cc2)[C@H]1C(=O)Nc1cccc2cccnc12 [MY-3B]
II = C=CC(=O)N1C[C@H](c2ccc(Br)cc2)[C@H]1C(=O)Nc1cccc2cccnc12 [MY-3A]
III = C=CC(=O)N1C[C@@H](c2ccc(Br)cc2)[C@H]1C(=O)Nc1cccc2cccnc12 [MY-1A]
Exam item: Task field, ranking: reported % engagement SYNE2_C2993, descending order. Kindly provide the labels arranged according to the requested ordering.
Marked response: I, II, III

---

target: REEP5_C18 (Homo sapiens, UniProt Q00765); construct: endogenous in cells; host or cells: 22Rv1; test: IA-DTB cysteine engagement; type: binding; conditions: 22Rv1 cells, 20 μM probe, 1 h, relative to DMSO
Sequence (Q00765 whole entry): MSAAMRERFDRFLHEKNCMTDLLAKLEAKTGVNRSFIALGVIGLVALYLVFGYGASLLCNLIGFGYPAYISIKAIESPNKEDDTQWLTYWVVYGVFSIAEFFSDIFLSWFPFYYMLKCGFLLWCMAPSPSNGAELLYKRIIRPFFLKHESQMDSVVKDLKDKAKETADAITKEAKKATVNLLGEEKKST
quantity_name: % engagement REEP5_C18 (%)

Exam item: Identify measured % engagement REEP5_C18 corresponding to C=CC(=O)N1C[C@@H](c2ccc(Br)cc2)[C@H]1C(=O)Nc1cccc2cccnc12 [MY-1A]
Marked response: 91.75

Exam item: Identify measured % engagement REEP5_C18 corresponding to C=CC(=O)N1C[C@H](c2ccc(Br)cc2)[C@H]1C(=O)Nc1cccc2cccnc12 [MY-3A]
Marked response: 88.25

Exam item: Identify measured % engagement REEP5_C18 corresponding to C=CC(=O)N1C[C@H](c2ccc(Br)cc2)[C@H]1C(=O)Nc1cccc2cccnc12 [MY-3B]
Marked response: 91.75

Exam item: Identify measured % engagement REEP5_C18 corresponding to C=CC(=O)N1C[C@H](c2ccc(Br)cc2)[C@@H]1C(=O)Nc1cccc2cccnc12 [MY-1B]
Marked response: 97.5

---

molecular target: CNOT4_C175 (Homo sapiens, UniProt O95628); construct: endogenous in cells; host or cells: 22Rv1; test: IA-DTB cysteine engagement; type: binding; conditions: 22Rv1 cells, 20 μM probe, 1 h, relative to DMSO
Sequence (O95628 whole entry): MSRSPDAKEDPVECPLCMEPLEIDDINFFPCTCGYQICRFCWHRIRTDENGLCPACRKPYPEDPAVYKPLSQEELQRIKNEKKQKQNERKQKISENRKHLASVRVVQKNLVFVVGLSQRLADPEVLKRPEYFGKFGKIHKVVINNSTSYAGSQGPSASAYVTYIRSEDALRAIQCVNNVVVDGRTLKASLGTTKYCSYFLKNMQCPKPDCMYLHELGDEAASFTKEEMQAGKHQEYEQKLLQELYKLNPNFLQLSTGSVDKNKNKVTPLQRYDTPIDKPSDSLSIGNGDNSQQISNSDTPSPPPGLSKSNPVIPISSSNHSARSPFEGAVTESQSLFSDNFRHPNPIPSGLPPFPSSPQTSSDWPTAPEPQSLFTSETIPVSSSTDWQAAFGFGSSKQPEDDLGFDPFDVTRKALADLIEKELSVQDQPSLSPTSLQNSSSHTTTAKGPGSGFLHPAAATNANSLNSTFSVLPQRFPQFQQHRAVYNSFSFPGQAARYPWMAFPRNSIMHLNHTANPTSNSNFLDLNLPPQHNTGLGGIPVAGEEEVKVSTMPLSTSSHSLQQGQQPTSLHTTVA
quantity_name: % engagement CNOT4_C175 (%)

Exam item: Identify measured % engagement CNOT4_C175 corresponding to C=CC(=O)N1C[C@@H](c2ccc(Br)cc2)[C@H]1C(=O)Nc1cccc2cccnc12
Marked response: 0

Exam item: Identify measured % engagement CNOT4_C175 corresponding to C=CC(=O)N1C[C@H](c2ccc(Br)cc2)[C@H]1C(=O)Nc1cccc2cccnc12 [MY-3B]
Marked response: 76

a = C=CC(=O)N1C[C@H](c2ccc(Br)cc2)[C@H]1C(=O)Nc1cccc2cccnc12 [MY-3A]
b = C=CC(=O)N1C[C@H](c2ccc(Br)cc2)[C@@H]1C(=O)Nc1cccc2cccnc12
Exam item: Of a and b , which shows the smaller % engagement CNOT4_C175 value? Provide the label of your selected option as the answer.
Marked response: b
(b: −15%, a: 76.5%)

---

target: SLC12A8_C660 (Homo sapiens, UniProt A0AV02); construct: endogenous in cells; host or cells: 22Rv1; test: IA-DTB cysteine engagement; type: binding; conditions: 22Rv1 cells, 20 μM probe, 1 h, relative to DMSO
Sequence (A0AV02 whole entry): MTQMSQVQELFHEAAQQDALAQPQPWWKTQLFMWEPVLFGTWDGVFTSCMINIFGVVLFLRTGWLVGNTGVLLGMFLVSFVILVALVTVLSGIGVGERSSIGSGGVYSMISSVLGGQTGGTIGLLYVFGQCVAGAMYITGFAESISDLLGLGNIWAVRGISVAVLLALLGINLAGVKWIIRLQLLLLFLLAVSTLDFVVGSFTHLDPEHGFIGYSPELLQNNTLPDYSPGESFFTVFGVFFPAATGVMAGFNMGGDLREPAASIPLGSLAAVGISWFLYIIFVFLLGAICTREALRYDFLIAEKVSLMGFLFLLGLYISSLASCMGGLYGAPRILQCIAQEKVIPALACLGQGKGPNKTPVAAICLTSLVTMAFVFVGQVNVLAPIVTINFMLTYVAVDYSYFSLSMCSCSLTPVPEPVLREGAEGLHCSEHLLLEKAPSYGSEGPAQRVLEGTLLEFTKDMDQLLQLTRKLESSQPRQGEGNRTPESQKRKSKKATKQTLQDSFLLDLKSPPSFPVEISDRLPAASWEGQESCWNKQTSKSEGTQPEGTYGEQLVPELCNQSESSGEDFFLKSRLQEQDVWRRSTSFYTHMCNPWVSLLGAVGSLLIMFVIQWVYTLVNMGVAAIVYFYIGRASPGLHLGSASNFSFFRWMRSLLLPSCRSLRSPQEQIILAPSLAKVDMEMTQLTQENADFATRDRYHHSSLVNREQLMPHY
quantity_name: % engagement SLC12A8_C660 (%)

Exam item: Identify measured % engagement SLC12A8_C660 corresponding to C=CC(=O)N1C[C@H](c2ccc(Br)cc2)[C@H]1C(=O)Nc1cccc2cccnc12 [MY-3B]
Marked response: 68.5

Exam item: Identify measured % engagement SLC12A8_C660 corresponding to C=CC(=O)N1C[C@@H](c2ccc(Br)cc2)[C@H]1C(=O)Nc1cccc2cccnc12 [MY-1A]
Marked response: 77.5

1 = C=CC(=O)N1C[C@H](c2ccc(Br)cc2)[C@@H]1C(=O)Nc1cccc2cccnc12 [MY-1B]
2 = C=CC(=O)N1C[C@H](c2ccc(Br)cc2)[C@H]1C(=O)Nc1cccc2cccnc12 [MY-3A]
Exam item: When their % engagement SLC12A8_C660 values are compared, which is larger, 1 or 2 ? Provide the label of your selected option as the answer.
Marked response: 1
(1: 61.5%, 2: 41%)

---

target: ANGEL1_C27 (Homo sapiens, UniProt Q9UNK9); construct: endogenous in cells; host or cells: 22Rv1; experiment: IA-DTB cysteine engagement; type: binding; details: 22Rv1 cells, 20 μM probe, 1 h, relative to DMSO
Sequence (Q9UNK9 whole entry): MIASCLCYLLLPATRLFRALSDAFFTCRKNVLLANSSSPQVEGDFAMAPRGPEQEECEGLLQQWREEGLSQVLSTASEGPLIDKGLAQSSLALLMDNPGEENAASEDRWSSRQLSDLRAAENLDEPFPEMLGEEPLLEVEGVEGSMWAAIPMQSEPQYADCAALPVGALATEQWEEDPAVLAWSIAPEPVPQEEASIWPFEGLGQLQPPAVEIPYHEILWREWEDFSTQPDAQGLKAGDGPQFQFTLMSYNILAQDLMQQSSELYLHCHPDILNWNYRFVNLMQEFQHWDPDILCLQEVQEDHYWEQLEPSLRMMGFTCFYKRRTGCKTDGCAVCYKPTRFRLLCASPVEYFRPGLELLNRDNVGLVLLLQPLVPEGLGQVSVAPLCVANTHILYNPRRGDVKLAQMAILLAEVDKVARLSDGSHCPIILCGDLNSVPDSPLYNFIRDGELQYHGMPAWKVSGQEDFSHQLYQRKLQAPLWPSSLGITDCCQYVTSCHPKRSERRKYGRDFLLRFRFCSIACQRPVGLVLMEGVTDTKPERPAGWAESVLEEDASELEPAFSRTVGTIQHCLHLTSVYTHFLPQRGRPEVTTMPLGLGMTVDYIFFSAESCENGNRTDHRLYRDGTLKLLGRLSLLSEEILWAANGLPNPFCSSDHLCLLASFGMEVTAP
quantity_name: % engagement ANGEL1_C27 (%)

Exam item: Identify measured % engagement ANGEL1_C27 corresponding to C=CC(=O)N1C[C@@H](c2ccc(Br)cc2)[C@H]1C(=O)Nc1cccc2cccnc12
Marked response: 63

Exam item: Identify measured % engagement ANGEL1_C27 corresponding to C=CC(=O)N1C[C@H](c2ccc(Br)cc2)[C@H]1C(=O)Nc1cccc2cccnc12 [MY-3B]
Marked response: 54.5

I = C=CC(=O)N1C[C@H](c2ccc(Br)cc2)[C@H]1C(=O)Nc1cccc2cccnc12 [MY-3A]
II = C=CC(=O)N1C[C@H](c2ccc(Br)cc2)[C@@H]1C(=O)Nc1cccc2cccnc12
Exam item: When their % engagement ANGEL1_C27 values are compared, which is larger, I or II ? Provide the label of your selected option as the answer.
Marked response: II

---

biological target: OCIAD1_C98 (Homo sapiens); construct: endogenous in cells; host or cells: 22Rv1; test: IA-DTB cysteine engagement; assay type: binding; settings: 22Rv1 cells, 20 μM probe, 1 h, relative to DMSO
Sequence (Q9NX40 whole entry): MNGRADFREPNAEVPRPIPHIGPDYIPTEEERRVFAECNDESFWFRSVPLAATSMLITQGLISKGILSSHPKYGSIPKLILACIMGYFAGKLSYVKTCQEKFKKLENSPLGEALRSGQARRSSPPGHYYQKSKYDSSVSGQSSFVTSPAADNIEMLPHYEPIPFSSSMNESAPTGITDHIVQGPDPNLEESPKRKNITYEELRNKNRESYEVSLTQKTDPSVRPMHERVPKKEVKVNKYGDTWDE
quantity_name: % engagement OCIAD1_C98 (%)

Solved entries:
Exam item: Identify measured % engagement OCIAD1_C98 corresponding to C=CC(=O)N1C[C@@H](c2ccc(Br)cc2)[C@H]1C(=O)Nc1cccc2cccnc12
Marked response: 26

Exam item: Identify measured % engagement OCIAD1_C98 corresponding to C=CC(=O)N1C[C@H](c2ccc(Br)cc2)[C@H]1C(=O)Nc1cccc2cccnc12 [MY-3A]
Marked response: 12.5

I = C=CC(=O)N1C[C@H](c2ccc(Br)cc2)[C@H]1C(=O)Nc1cccc2cccnc12 [MY-3B]
II = C=CC(=O)N1C[C@H](c2ccc(Br)cc2)[C@@H]1C(=O)Nc1cccc2cccnc12
Exam item: Of I and II , which shows the smaller % engagement OCIAD1_C98 value? Provide the label of your selected option as the answer.
Marked response: II

---

molecular target: NAPIL1_C132 (Homo sapiens); construct: endogenous in cells; host or cells: 22Rv1; test: IA-DTB cysteine engagement; type: binding; details: 22Rv1 cells, 20 μM probe, 1 h, relative to DMSO
Sequence (P55209 whole entry): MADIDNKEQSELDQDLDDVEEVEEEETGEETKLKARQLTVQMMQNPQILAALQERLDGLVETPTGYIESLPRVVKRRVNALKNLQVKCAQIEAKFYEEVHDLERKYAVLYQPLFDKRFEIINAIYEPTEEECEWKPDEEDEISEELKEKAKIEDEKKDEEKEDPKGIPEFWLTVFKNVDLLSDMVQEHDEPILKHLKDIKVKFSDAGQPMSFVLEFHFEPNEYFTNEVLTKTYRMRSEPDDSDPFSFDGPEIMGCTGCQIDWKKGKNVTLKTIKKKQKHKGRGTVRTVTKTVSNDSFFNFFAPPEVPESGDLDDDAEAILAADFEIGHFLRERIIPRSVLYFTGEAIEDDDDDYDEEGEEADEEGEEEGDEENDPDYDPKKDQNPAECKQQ
quantity_name: % engagement NAPIL1_C132 (%)

Exam item: Identify measured % engagement NAPIL1_C132 corresponding to C=CC(=O)N1C[C@H](c2ccc(Br)cc2)[C@H]1C(=O)Nc1cccc2cccnc12 [MY-3A]
Marked response: 25

Exam item: Identify measured % engagement NAPIL1_C132 corresponding to C=CC(=O)N1C[C@H](c2ccc(Br)cc2)[C@@H]1C(=O)Nc1cccc2cccnc12 [MY-1B]
Marked response: 6

P = C=CC(=O)N1C[C@@H](c2ccc(Br)cc2)[C@H]1C(=O)Nc1cccc2cccnc12 [MY-1A]
Q = C=CC(=O)N1C[C@H](c2ccc(Br)cc2)[C@H]1C(=O)Nc1cccc2cccnc12 [MY-3B]
Exam item: When their % engagement NAPIL1_C132 values are compared, which is larger, P or Q ? Provide the label of your selected option as the answer.
Marked response: Q
(Q: 80%, P: −21.5%)

---

target: ACTL8_C197 (Homo sapiens, UniProt Q9H568); construct: endogenous in cells; host or cells: 22Rv1; test: IA-DTB cysteine engagement; assay type: binding; settings: 22Rv1 cells, 20 μM probe, 1 h, relative to DMSO
Sequence (Q9H568 whole entry): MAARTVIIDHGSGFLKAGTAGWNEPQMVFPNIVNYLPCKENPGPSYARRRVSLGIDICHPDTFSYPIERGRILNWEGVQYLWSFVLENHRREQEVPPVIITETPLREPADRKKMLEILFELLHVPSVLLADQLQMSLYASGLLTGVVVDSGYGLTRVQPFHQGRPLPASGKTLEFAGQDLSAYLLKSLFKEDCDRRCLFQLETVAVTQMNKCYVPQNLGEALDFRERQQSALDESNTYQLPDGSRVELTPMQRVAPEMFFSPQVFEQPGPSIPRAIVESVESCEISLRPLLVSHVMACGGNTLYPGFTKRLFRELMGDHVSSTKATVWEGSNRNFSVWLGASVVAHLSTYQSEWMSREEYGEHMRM
quantity_name: % engagement ACTL8_C197 (%)

A = C=CC(=O)N1C[C@@H](c2ccc(Br)cc2)[C@H]1C(=O)Nc1cccc2cccnc12
B = C=CC(=O)N1C[C@H](c2ccc(Br)cc2)[C@H]1C(=O)Nc1cccc2cccnc12 [MY-3B]
C = C=CC(=O)N1C[C@H](c2ccc(Br)cc2)[C@@H]1C(=O)Nc1cccc2cccnc12
D = C=CC(=O)N1C[C@H](c2ccc(Br)cc2)[C@H]1C(=O)Nc1cccc2cccnc12 [MY-3A]
Exam item: Order the items by recorded % engagement ACTL8_C197; the first position goes to the largest value. Kindly provide the labels arranged according to the requested ordering.
Marked response: C, B, A, D
